Source listed as ChEMBL document CHEMBL3120104.

assay.notes: Efflux ratio of apparent permeability across human Caco2 cells at 100 uM
Assay type: ADME, cell-based
condition: Caco-2
quantity.kind: efflux ratio at 100 µM

Query :: Quick one: efflux ratio at 100 µM for CC(C)OC(=O)[C@H](C)NP(=O)(OC[C@H]1O[C@@](C#N)(c2ccc3c(N)ncnn23)[C@](C)(O)[C@@H]1OC(=O)C(C)C)Oc1ccccc1 (stereo partly specified) ?
Result :: < 2

----------
assay.notes: Toxicity in dog after 7 days
Format: organism-based, Canis lupus familiaris
condition: in vivo
quantity.kind: NOAEL at 168 h

Query :: Quick one: NOAEL at 168 h for CC(C)OC(=O)[C@H](C)NP(=O)(OC[C@H]1O[C@@](C#N)(c2ccc3c(N)ncnn23)[C@](C)(O)[C@@H]1OC(=O)C(C)C)Oc1ccccc1 (stereo partly specified) ?
Result :: > 75 mg/kg/day

----------
assay.notes: Metabolic stability in human liver S9 fraction assessed as extraction at 2 uM after 90 mins by LC/MS/MS analysis
Type: ADME, subcellular
condition: read-out: Stability
quantity.kind: hepatic extraction ratio at 1.5 h, 2 µM
# respond with the number and nothing more

Some compounds with known hepatic extraction ratio at 1.5 h, 2 µM results, for comparison:
| compound | quantity.kind | quantitative.readout |
| --- | --- | --- |
| C[C@H](NP(=O)(OC[C@H]1O[C@@](C#N)(c2ccc3c(N)ncnn23)[C@](C)(O)[C@@H]1O)Oc1ccccc1)C(=O)OCc1ccccc1 (stereo not given in full) | hepatic extraction ratio at 1.5 h, 2 µM | 0.93 |
| CC(C)OC(=O)[C@H](C)NP(=O)(OC[C@H]1O[C@@](C#N)(c2ccc3c(N)ncnn23)[C@](C)(O)[C@@H]1O)Oc1ccccc1 (stereo not given in full) | hepatic extraction ratio at 1.5 h, 2 µM | 0.9 |
| C[C@H](NP(=O)(OC[C@H]1O[C@@](C#N)(c2ccc3c(N)ncnn23)[C@](C)(O)[C@@H]1O)Oc1ccccc1)C(=O)OC1CCCC1 (stereo not given in full) | hepatic extraction ratio at 1.5 h, 2 µM | 0.95 |
| CCOC(=O)[C@H](C)NP(=O)(OC[C@H]1O[C@@](C#N)(c2ccc3c(N)ncnn23)[C@](C)(O)[C@@H]1O)Oc1ccccc1 (stereo not given in full) | hepatic extraction ratio at 1.5 h, 2 µM | 0.89 |
| CCC(CC)COC(=O)[C@H](C)NP(=O)(OC[C@H]1O[C@@](C#N)(c2ccc3c(N)ncnn23)[C@](C)(O)[C@@H]1O)Oc1ccccc1 (stereo not given in full) | hepatic extraction ratio at 1.5 h, 2 µM | 0.97 |
| C[C@H](NP(=O)(OC[C@H]1O[C@@](C#N)(c2ccc3c(N)ncnn23)[C@](C)(O)[C@@H]1O)Oc1ccccc1)C(=O)OC(C)(C)C (stereo not given in full) | hepatic extraction ratio at 1.5 h, 2 µM | 0.84 |
| C[C@H](NP(=O)(OC[C@H]1O[C@@](C#N)(c2ccc3c(N)ncnn23)[C@](C)(O)[C@@H]1O)Oc1ccccc1)C(=O)OCC(C)(C)C (stereo not given in full) | hepatic extraction ratio at 1.5 h, 2 µM | 0.94 |
| CC[C@H](C)OC(=O)[C@H](C)NP(=O)(OC[C@H]1O[C@@](C#N)(c2ccc3c(N)ncnn23)[C@](C)(O)[C@@H]1O)Oc1ccccc1 (stereo not given in full) | hepatic extraction ratio at 1.5 h, 2 µM | 0.93 |

Query :: Quick one: hepatic extraction ratio at 1.5 h, 2 µM for CC[C@@H](C)OC(=O)[C@H](C)NP(=O)(OC[C@H]1O[C@@](C#N)(c2ccc3c(N)ncnn23)[C@](C)(O)[C@@H]1O)Oc1ccccc1 (stereo not given in full) ?
Result :: 0.94

Query :: Quick one: hepatic extraction ratio at 1.5 h, 2 µM for COC(=O)[C@H](C)NP(=O)(OC[C@H]1O[C@@](C#N)(c2ccc3c(N)ncnn23)[C@](C)(O)[C@@H]1O)Oc1ccccc1 (stereo not given in full) ?
Result :: 0.9
